Taken from the supplement of paper PMC6992640.

Entries annotated with measured cell viability
Test system: HCI09 (cells of a triple-negative luminal androgen receptor type breast cancer xenograft);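 note: PDX cells carrying CMV promoter-driven luciferase, viability read as total photon flux per second by IVIS imaging following D-luciferin, vehicle control 0.1% DMSO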
Assay: cell viability (% of vehicle); higher = less cytotoxic
Details: 10 µM; 72 h

COMPOUND	cell viability
C=CC(=O)N1CCC(Oc2cc3c(Nc4ccc(Cl)c(Cl)c4F)ncnc3cc2OC)CC1	47.1
CC12CCC(O)CC1=CCC1C2CCC2(C)C(c3cccnc3)=CCC12 (stereo not given)	86.1
O=C(O)CCNC(=O)c1ccc(/N=N/c2ccc(O)c(C(=O)O)c2)cc1 [Balsalazide]	87.6
CC(=O)OCC(=O)[C@@]12N=C(C)O[C@@H]1C[C@H]1[C@@H]3CCC4=CC(=O)C=C[C@]4(C)[C@H]3[C@@H](O)C[C@@]12C	137
Nc1nc(F)nc2c1ncn2C1OC(COP(=O)(O)O)C(O)C1O (stereo not given) [Fludarabine Phosphate (Fludara)]	98.1
Nc1nnc(-c2cccc(Cl)c2Cl)c(N)n1	134
O=C(C=Cc1cccc(S(=O)(=O)Nc2ccccc2)c1)NO	39.6
Cc1cc2c(cc1S(N)(=O)=O)S(=O)(=O)CCC2	102
CCCCC(=O)N(Cc1ccc(-c2ccccc2-c2nn[nH]n2)cc1)C(C(=O)O)C(C)C (stereo not given)	118
CC(CN1CC(=O)NC(=O)C1)N1CC(=O)NC(=O)C1 (stereo not given)	102
CC1(C)SC2C(NC(=O)C(N)c3ccc(O)cc3)C(=O)N2C1C(=O)O (stereo not given)	103
C=CC(=O)N1CCCC(n2nc(-c3ccc(Oc4ccccc4)cc3)c3c(N)ncnc32)C1 (stereo not given)	56.2
CN(C)CCC(c1ccccc1)c1ccccn1.O=C(O)C=CC(=O)O (stereo not given) [Pheniramine Maleate]	108
CCN(CC)CCNC(=O)c1cc(Cl)c(N)cc1OC [Metoclopramide]	90.8
CC(=O)Oc1ccc(C(c2ccc(OC(C)=O)cc2)c2ccccn2)cc1	30.9

* * *

Measured cell viability of combination, listed per entry.
System: UCD52 (cells of a triple-negative basal-like breast cancer xenograft)
Assay: cell viability of combination (% of vehicle); higher = less cytotoxic
Conditions: 1 µM; 72 h; partner dose: 10 nM

COMPOUND	cell viability of combination
O=C(O)c1cc(O)c(O)c(O)c1 [Gallic acid] + CN(C)C/C=C/C(=O)Nc1cc2c(Nc3ccc(F)c(Cl)c3)ncnc2cc1O[C@H]1CCOC1	73.6
CC(=O)c1cc2c(o1)C(=O)c1ccccc1C2=O [Napabucasin] + CN(C)C/C=C/C(=O)Nc1cc2c(Nc3ccc(F)c(Cl)c3)ncnc2cc1O[C@H]1CCOC1	17.4
C=C(c1ccc(C(=O)O)cc1)c1cc2c(cc1C)C(C)(C)CCC2(C)C [Bexarotene] + CN(C)C/C=C/C(=O)Nc1cc2c(Nc3ccc(F)c(Cl)c3)ncnc2cc1O[C@H]1CCOC1	82.4
CNCCC(Oc1cccc2ccccc12)c1cccs1.Cl (centres undefined) [Duloxetine HCl] + CN(C)C/C=C/C(=O)Nc1cc2c(Nc3ccc(F)c(Cl)c3)ncnc2cc1O[C@H]1CCOC1	59.8
Cc1ccc(-n2[nH]c(C)c(NN=C3C=CC=C(c4cccc(C(=O)O)c4)C3=O)c2=O)cc1C [Eltrombopag] + CN(C)C/C=C/C(=O)Nc1cc2c(Nc3ccc(F)c(Cl)c3)ncnc2cc1O[C@H]1CCOC1	77.1
CN(C)c1ccc(O)c2c1CC1CC3C(N(C)C)C(=O)C(C(N)=O)=C(O)C3(O)C(=O)C1=C2O.Cl (centres undefined) [Minocycline HCl] + CN(C)C/C=C/C(=O)Nc1cc2c(Nc3ccc(F)c(Cl)c3)ncnc2cc1O[C@H]1CCOC1	75.9
CN(C)c1ccc(C(=C2C=CC(=[N+](C)C)C=C2)c2ccc(N(C)C)cc2)cc1.[Cl-] [Crystal Violet] + CN(C)C/C=C/C(=O)Nc1cc2c(Nc3ccc(F)c(Cl)c3)ncnc2cc1O[C@H]1CCOC1	41
CCC(=C(c1ccccc1)c1ccc(OCCN(C)C)cc1)c1ccccc1.O=C(O)CC(O)(CC(=O)O)C(=O)O [Tamoxifen Citrate] + CN(C)C/C=C/C(=O)Nc1cc2c(Nc3ccc(F)c(Cl)c3)ncnc2cc1O[C@H]1CCOC1	69.5
COC(=O)C12CCC(C)(C)CC1C1C(=O)C=C3C4(C)C=C(C#N)C(=O)C(C)(C)C4CCC3(C)C1(C)CC2 (centres undefined) [Bardoxolone methyl] + CN(C)C/C=C/C(=O)Nc1cc2c(Nc3ccc(F)c(Cl)c3)ncnc2cc1O[C@H]1CCOC1	47.9
